Reported IC50, ROCK2 (Homo sapiens, UniProt O75116).
Report as a plain number; the unit nM is understood.

q: Please report IC50 for the following molecule: O=C(CCC(F)(F)F)N1CCc2sc(-c3ncc(F)c(Nc4ccc5c(=O)[nH]ccc5c4)n3)cc2C1
a: 9

q: Given O=C(OC1CCOC1)N1Cc2ccc(-c3ncc(F)c(Nc4ccc5c(=O)[nH]ccc5c4)n3)cc2C1 (centres unmarked) , respond with its IC50.
a: 25

q: In one line, give reported IC50 of the entry O=C(OC1CC(F)(F)C1)N1CCc2sc(-c3ncc(F)c(Nc4ccc5c(=O)[nH]ccc5c4)n3)cc2C1 .
a: 8

q: Given the molecule CC(C)(C)OC(=O)N1Cc2ccc(-c3ncc(F)c(Nc4ccc5c(c4)CCNC5=O)n3)cc2C1 , write its reported IC50.
a: 49

q: Annotate the molecule CC(C)(C)CC(=O)N1CCc2sc(-c3ncc(F)c(Nc4ccc5c(c4)CCNC5=O)n3)cc2C1 with its measured IC50.
a: 135

q: Tell me measured IC50 for O=C(OC1CC(F)(F)C1)N1CCc2cc(-c3ncc(F)c(Nc4ccc5c(=O)[nH]ccc5c4)n3)ccc2C1 please.
a: 173

q: Consider the molecule O=C(OC1CCC1)N1CCc2cc(-c3ncc(F)c(Nc4ccc5c(=O)[nH]ccc5c4)n3)ccc2C1 . State its measured IC50.
a: 356

q: Could you please provide reported IC50 for CC(CC(=O)N1CCc2cc(-c3ncc(F)c(Nc4ccc5c(=O)[nH]ccc5c4)n3)ccc21)C(F)(F)F (centres unmarked) ? Thanks!
a: 25

Sourced from patent US12398118B2
